Each item that follows carries a reported IC50.
system.name: TYK2 (Homo sapiens, UniProt P29597)
Construct: endogenous in cells; host or cells: Molt4 (ATCC CRL-1582) and Ramos (ATCC CRL-1596), mixed lysate 1:2
Sequence (P29597 whole entry): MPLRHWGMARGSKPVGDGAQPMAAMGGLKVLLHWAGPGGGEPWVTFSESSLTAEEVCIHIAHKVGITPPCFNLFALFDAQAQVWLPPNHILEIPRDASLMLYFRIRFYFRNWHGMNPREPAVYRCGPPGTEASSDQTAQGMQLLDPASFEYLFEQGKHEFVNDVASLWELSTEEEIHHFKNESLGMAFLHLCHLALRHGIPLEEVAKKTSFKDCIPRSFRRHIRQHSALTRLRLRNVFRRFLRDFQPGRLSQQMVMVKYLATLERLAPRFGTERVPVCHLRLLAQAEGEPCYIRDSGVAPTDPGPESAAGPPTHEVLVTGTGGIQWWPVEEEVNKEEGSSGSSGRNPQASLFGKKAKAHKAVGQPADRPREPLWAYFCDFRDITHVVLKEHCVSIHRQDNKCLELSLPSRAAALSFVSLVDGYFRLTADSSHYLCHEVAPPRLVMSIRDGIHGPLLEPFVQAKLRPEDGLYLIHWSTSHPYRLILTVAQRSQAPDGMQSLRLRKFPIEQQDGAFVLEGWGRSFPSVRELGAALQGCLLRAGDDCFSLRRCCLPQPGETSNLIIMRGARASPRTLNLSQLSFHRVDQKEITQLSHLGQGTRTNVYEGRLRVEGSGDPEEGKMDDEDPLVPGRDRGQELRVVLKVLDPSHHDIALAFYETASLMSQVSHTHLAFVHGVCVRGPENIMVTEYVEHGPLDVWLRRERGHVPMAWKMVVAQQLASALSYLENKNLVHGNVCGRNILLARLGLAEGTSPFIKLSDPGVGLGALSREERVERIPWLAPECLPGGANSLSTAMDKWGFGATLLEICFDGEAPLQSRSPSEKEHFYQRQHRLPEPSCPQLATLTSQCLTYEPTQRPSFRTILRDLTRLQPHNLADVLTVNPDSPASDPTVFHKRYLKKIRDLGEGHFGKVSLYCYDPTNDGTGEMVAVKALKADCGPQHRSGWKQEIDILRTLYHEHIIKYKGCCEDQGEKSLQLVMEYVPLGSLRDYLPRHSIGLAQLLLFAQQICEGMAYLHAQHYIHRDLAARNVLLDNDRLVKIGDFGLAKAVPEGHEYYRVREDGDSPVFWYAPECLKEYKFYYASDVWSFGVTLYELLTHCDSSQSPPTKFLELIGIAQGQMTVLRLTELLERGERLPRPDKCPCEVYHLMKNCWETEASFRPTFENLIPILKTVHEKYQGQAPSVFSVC
assay.remarks: Kinobeads assay, TYK2 (competition binding in mixed Molt4/Ramos cell lysate, dot blot detection)
condition.label: Kinobeads assay, Molt4/Ramos lysate; read-out: TYK2 Band (Kinobeads assay potency, IC50)

Consider the reported IC50 for these compounds:
compound: CS(=O)(=O)c1cccc(CNc2nc(Nc3cnn(CC(=O)NCCO)c3)ncc2Cl)c1
IC50: 100 to 1000 nM

compound: O=C(Cn1cc(Nc2ncc(Cl)c(NCc3cncc(F)c3)n2)cn1)N1CCOCC1
IC50: 10 to 100 nM

compound: Cc1cnc(Nc2cnn(CCO)c2)nc1NCc1ccccc1
IC50: 100 to 1000 nM

compound: CS(=O)(=O)NCc1cccc(CNc2nc(Nc3cnn(CC(N)=O)c3)ncc2Cl)c1
IC50: 100 to 1000 nM

compound: O=C(Cn1cc(Nc2nccc(NCc3c(F)cccc3F)n2)cn1)N1CCOCC1
IC50: ≤ 10 nM

compound: NS(=O)(=O)c1ccc(CNc2nc(Nc3cnn(CCO)c3)ncc2F)cc1
IC50: 10 to 100 nM

compound: CN(C)C(=O)Cn1cc(Nc2ncc(Cl)c(NCc3cccc(C(N)=O)c3)n2)cn1
IC50: 100 to 1000 nM

compound: CN(C)C(=O)Cn1cc(Nc2ncc(Cl)c(NCc3ccccc3)n2)cn1
IC50: 100 to 1000 nM

compound: CNC(=O)Cn1cc(Nc2ncc(C)c(NCc3c(F)ccc(F)c3F)n2)cn1
IC50: ≤ 10 nM

compound: OCCn1cc(Nc2ncc(Cl)c(NCc3cccnc3)n2)cn1
IC50: 100 to 1000 nM

## Input Consider the compound Cn1cc(Nc2ncc(Cl)c(NCc3cc(C(F)(F)F)ccc3F)n2)cn1 and give its recorded IC50.
## Output 100 to 1000 nM

## Input Consider the compound NC(=O)Cn1cc(Nc2ncc(F)c(NCc3c(F)cc(F)cc3F)n2)cn1 and give its recorded IC50.
## Output 10 to 100 nM

## Input Consider the compound O=C(Cn1cc(Nc2nccc(NCc3c(F)cccc3F)n2)cn1)NC1CC1 and give its recorded IC50.
## Output 10 to 100 nM

## Input Consider the compound COc1ccc(Cl)c(CNc2nc(Nc3cnn(C)c3)ncc2F)c1F and give its recorded IC50.
## Output 10 to 100 nM

## Input Consider the compound O=C(O)Cn1cc(Nc2ncc(F)c(NCc3cccc(OC(F)F)c3)n2)cn1 and give its recorded IC50.
## Output 10 to 100 nM

## Input Consider the compound CC(NC(=O)Cn1cc(Nc2nccc(NCc3c(F)cc(F)cc3F)n2)cn1)C(F)F (stereo not shown) and give its recorded IC50.
## Output 10 to 100 nM

---

Each item that follows carries a reported IC50.
system.name: TYK2 (Homo sapiens)
Construct: endogenous in cells; host or cells: Molt4 (ATCC CRL-1582) and Ramos (ATCC CRL-1596), mixed lysate 1:2
assay.remarks: Kinobeads assay, TYK2 (competition binding in mixed Molt4/Ramos cell lysate, dot blot detection)
condition.label: Kinobeads assay, Molt4/Ramos lysate; read-out: TYK2 Band (Kinobeads assay potency, IC50)

compound: C[C@@H]1COCCN1C(=O)Cn1cc(Nc2ncc(F)c(NCc3c(F)cc(F)cc3F)n2)cn1 [Example I-40]
observed.result: 10 to 100 nM

compound: N#C[C@@H]1CCN(C(=O)Cn2cc(Nc3ncc(Cl)c(NCc4ccccc4)n3)cn2)C1 [Example I-271]
observed.result: 10 to 100 nM

compound: CCOc1cccc(CNc2nc(Nc3cnn(CCO)c3)ncc2Cl)c1 [Example I-294]
observed.result: 100 to 1000 nM

compound: Cc1cnc(Nc2cnn(C)c2)nc1NCc1c(F)cc(F)cc1F [Example I-301]
observed.result: 10 to 100 nM

compound: Cn1cc(Nc2ncc(Cl)c(NCc3cccc(S(N)(=O)=O)c3)n2)cn1 [Example I-198]
observed.result: 100 to 1000 nM

## Input Consider the compound O=C(Cn1cc(Nc2nccc(NCc3c(F)cc(F)cc3F)n2)cn1)NCCO [Example I-89] and give its recorded IC50.
## Output 10 to 100 nM

## Input Consider the compound CCOc1ccc(F)c(CNc2nc(Nc3cn[nH]c3)ncc2Cl)c1F [Example I-368] and give its recorded IC50.
## Output 10 to 100 nM

## Input Consider the compound C[C@@H](CO)NC(=O)Cn1cc(Nc2nccc(NCc3c(F)cccc3F)n2)cn1 [Example I-151] and give its recorded IC50.
## Output 10 to 100 nM

## Input Consider the compound Cc1cnc(Nc2cnn(C)c2)nc1NCc1cc(F)cc(F)c1F [Example I-342] and give its recorded IC50.
## Output 10 to 100 nM

---

Each item that follows carries a reported IC50.
system.name: TYK2 (Homo sapiens, UniProt P29597)
Construct: endogenous in cells; host or cells: Molt4 (ATCC CRL-1582) and Ramos (ATCC CRL-1596), mixed lysate 1:2
assay.remarks: Kinobeads assay, TYK2 (competition binding in mixed Molt4/Ramos cell lysate, dot blot detection)
condition.label: Kinobeads assay, Molt4/Ramos lysate; read-out: TYK2 Band (Kinobeads assay potency, IC50)

Consider the reported IC50 for these compounds:
compound: O=C(Cn1cc(Nc2ncc(F)c(NCc3c(Cl)cccc3Cl)n2)cn1)N1CCOCC1
observed.result: 10 to 100 nM
--
compound: Cn1cc(Nc2ncc(Cl)c(NCc3c(F)ccc(F)c3F)n2)cn1
observed.result: 10 to 100 nM
--
compound: C[C@H]1COCCN1C(=O)Cn1cc(Nc2nccc(NCc3c(F)cc(F)cc3F)n2)cn1
observed.result: 10 to 100 nM
--
compound: N#CCNC(=O)Cn1cc(Nc2nccc(NCc3c(F)cc(F)cc3F)n2)cn1
observed.result: 10 to 100 nM
--
compound: CS(=O)(=O)c1ccc(F)c(CNc2nc(Nc3cnn(CC(N)=O)c3)ncc2Cl)c1
observed.result: 10 to 100 nM

## Input Consider the compound CC(C)NC(=O)Cn1cc(Nc2ncc(Cl)c(NCc3c(F)cc(F)cc3F)n2)cn1 and give its recorded IC50.
## Output 10 to 100 nM

## Input Consider the compound CN(C)C(=O)Cn1cc(Nc2ncc(Cl)c(NCc3c(Cl)cccc3Cl)n2)cn1 and give its recorded IC50.
## Output 10 to 100 nM

## Input Consider the compound O=C(Cn1cc(Nc2ncc(F)c(NCc3c(F)cc(F)cc3F)n2)cn1)N1CCOCC1 and give its recorded IC50.
## Output ≤ 10 nM

## Input Consider the compound O=C(Cn1cc(Nc2ncc(F)c(NCc3cccc(OC(F)F)c3)n2)cn1)N1CCOCC1 and give its recorded IC50.
## Output ≤ 10 nM

## Input Consider the compound Cc1cnc(Nc2cnn(CC(=O)N(C)C)c2)nc1NCc1c(F)cccc1F and give its recorded IC50.
## Output ≤ 10 nM

## Input Consider the compound Fc1cc(F)c(CNc2nc(Nc3cn[nH]c3)ncc2Cl)c(F)c1 and give its recorded IC50.
## Output 10 to 100 nM

---

system.name: JAK2 (Homo sapiens, UniProt O60674)
Construct: endogenous in cells
Sequence (O60674 whole entry): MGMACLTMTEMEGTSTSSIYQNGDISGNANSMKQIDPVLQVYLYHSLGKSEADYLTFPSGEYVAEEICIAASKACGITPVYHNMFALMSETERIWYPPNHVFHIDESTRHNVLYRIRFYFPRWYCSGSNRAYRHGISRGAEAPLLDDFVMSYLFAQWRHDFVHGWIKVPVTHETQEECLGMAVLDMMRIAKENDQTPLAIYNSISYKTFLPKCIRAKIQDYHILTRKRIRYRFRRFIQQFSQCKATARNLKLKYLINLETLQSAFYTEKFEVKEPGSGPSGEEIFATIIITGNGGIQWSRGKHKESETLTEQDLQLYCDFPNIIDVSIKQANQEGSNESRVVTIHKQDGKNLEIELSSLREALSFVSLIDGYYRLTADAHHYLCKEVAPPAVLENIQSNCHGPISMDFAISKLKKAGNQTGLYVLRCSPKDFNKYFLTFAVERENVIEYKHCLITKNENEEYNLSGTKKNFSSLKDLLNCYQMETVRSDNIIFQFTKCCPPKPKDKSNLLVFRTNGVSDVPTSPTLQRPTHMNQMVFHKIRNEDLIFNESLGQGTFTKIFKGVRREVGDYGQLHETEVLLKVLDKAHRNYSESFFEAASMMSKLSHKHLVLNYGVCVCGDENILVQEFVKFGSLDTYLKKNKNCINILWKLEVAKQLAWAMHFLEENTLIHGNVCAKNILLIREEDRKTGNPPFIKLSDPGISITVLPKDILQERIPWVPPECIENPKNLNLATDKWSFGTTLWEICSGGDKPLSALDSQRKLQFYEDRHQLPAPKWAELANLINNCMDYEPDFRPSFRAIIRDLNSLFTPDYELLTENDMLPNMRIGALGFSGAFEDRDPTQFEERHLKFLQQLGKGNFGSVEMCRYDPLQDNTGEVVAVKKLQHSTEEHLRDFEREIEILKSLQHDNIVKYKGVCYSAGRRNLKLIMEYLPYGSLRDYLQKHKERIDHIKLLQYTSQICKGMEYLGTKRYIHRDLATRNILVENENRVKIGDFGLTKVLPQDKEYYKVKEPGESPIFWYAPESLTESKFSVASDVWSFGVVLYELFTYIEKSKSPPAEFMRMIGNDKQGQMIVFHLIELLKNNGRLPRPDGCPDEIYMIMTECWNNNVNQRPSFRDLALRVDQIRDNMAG
assay.remarks: Kinobeads assay, JAK2 (competition binding in mixed Molt4/Ramos cell lysate, dot blot detection)
condition.label: read-out: JAK2 Band (Kinobeads assay potency, IC50)
pIC50: −log10 of the molar value.
Each item that follows carries a reported pIC50.

compound: OCCn1cc(Nc2ncc(Cl)c(NCc3cc(C(F)(F)F)ccc3F)n2)cn1 [Example I-281]
observed.result: 6.00 to 7.00

compound: Cn1cc(Nc2nccc(NCc3c(F)ccc(C#N)c3F)n2)cn1 [Example I-135]
observed.result: 5.00 to 6.00

## Input Consider the compound COc1cc(F)c(CNc2nc(Nc3cnn(CC(=O)NC(C)C)c3)ncc2F)c(F)c1 [Example I-70] and give its recorded pIC50.
## Output < 5.00

## Input Consider the compound NC(=O)Cn1cc(Nc2ncc(F)c(NCc3c(Cl)cccc3Cl)n2)cn1 [Example I-328] and give its recorded pIC50.
## Output 5.00 to 6.00

## Input Consider the compound CC1(C)CN(C(=O)Cn2cc(Nc3nccc(NCc4c(F)cc(F)cc4F)n3)cn2)C1 [Example I-458] and give its recorded pIC50.
## Output < 5.00

## Input Consider the compound CCOc1ccc(F)c(CNc2nc(Nc3cnn(CC(=O)NC)c3)ncc2Cl)c1F [Example I-269] and give its recorded pIC50.
## Output 5.00 to 6.00

## Input Consider the compound CC(NC(=O)Cn1cc(Nc2nccc(NCc3c(F)cc(F)cc3F)n2)cn1)C1CCOC1 (centres unmarked) [Example I-105] and give its recorded pIC50.
## Output < 5.00

## Input Consider the compound Fc1cccc(CNc2nc(Nc3cn[nH]c3)ncc2Cl)c1 [Example I-370] and give its recorded pIC50.
## Output 6.00 to 7.00
